Tested on: MS2 coat protein
Test Protocol: apparent KD of MS2 coat protein; higher = weaker reporter binding
Experimental Context: Eterna round: R107; input ligand: theophylline 20 uM
Label met for high-side apparent KD of MS2 coat protein (at or above 50 nM) and not met for low-side apparent KD of MS2 coat protein (below it).

Ask | Form field: apparent KD of MS2 coat protein at least 50 nM? Entry: UUUGAUAGGACAGAUACCAGCGUGUUGUUGAACAUGAGGAUCACCCAUGUAGUGAUCGAGCGCCCUUGGCAGCUGGUUUGUUAGG [7.O]
Reply | met

Ask | Form field: apparent KD of MS2 coat protein at least 50 nM? Entry: CCUAUCCAGUCGGCCGCCACUGAAAACAGUGGGUGAACAUGAGGAUCACCCAUGUAAUAAUAAAACAGGACCGGGACUGUAUAGG [Ex Tryptophan B 22]
Reply | met

Ask | Form field: apparent KD of MS2 coat protein at least 50 nM? Entry: AGCGCGGUGAUGGUAGCCGGACGCUAGGUACGAGGACCGGUACGGCCGCCACUCGGAGUCCUACGACAUGAGGAUCACCCAUGUA [Same State Trp A GF16]
Reply | met

Ask | Form field: apparent KD of MS2 coat protein at least 50 nM? Entry: CAUUUUAGAAAACUAAAAUGAGUGGGUGAACGAGGACCGGUACGGCCGCCACUCGGACAUGAGGAUCACCCAUGUCCAUGUGAAA [AstrosExyTryA#22]
Reply | not met

Ask | Form field: apparent KD of MS2 coat protein at least 50 nM? Entry: GCACCAGGUACGGAUACCAGCUGCCCGAGAUACAUGAGGAUCACCCAUGUGACCUGGUUUAGCCCUUGGCAGCUGUACCUGGUGC [#14 Same State - Theophylline B]
Reply | not met

Ask | Form field: apparent KD of MS2 coat protein at least 50 nM? Entry: AGUUUAGACACGGCCGCCACUCGUGACAGAUUUCGCAGUGGUCUACAUGAGGAUCACCCAUGUCUGAGGACCGGGUGUUGAGUUU [XTryp B #8]
Reply | met

Ask | Form field: apparent KD of MS2 coat protein at least 50 nM? Entry: GCAUGCGAUACCGAUACCAGCUACUCCAUGGCGCUCCACAUGAGGAUCACCCAUGUAAAUAGCCCUUGGCAGCGGUAUUGAGAUG [Anrabegema]
Reply | met

Ask | Form field: apparent KD of MS2 coat protein at least 50 nM? Entry: AACAUGAGGAUCACCCAUGUCCUCAUGAUUCGAGGACCGGUACGGCCGCCACUCGGUCCUCGCGAGGAGGAGUCAAAGACUCCAA [Omei Trp A SS A v2]
Reply | met

Ask | Form field: apparent KD of MS2 coat protein at least 50 nM? Entry: AAAACACAUGAGGAUCACCCAUGUCAUGAUACCAGUCCACAUGAGGACCCUUGGCAGCAUAAAAUGGGUAACAUGAGGAUAACCC [AstrosEXyTheA#4]
Reply | not met

Ask | Form field: apparent KD of MS2 coat protein at least 50 nM? Entry: ACUUCGCAUAGGAAAACUAUGUGAAGAAAUCGAGGACCGGUACGGCCGCCACUCGUCCUCAACAUGAGGAUCACCCAUGUAAUAA [Mat - Exclusion - Trytophan A - D5]
Reply | not met

Ask | Form field: apparent KD of MS2 coat protein at least 50 nM? Entry: AGCCAUGGAAACAUGGCGGCGGCAUGAGCGCGAGGACCGGUACGGCCGCCACUCGGGCAACAUGAGGAUCACCCAUGUUCCUCAU [ETA NP+V+V2 #20 +-Same Structure]
Reply | met

###

For each entry below, report its apparent KD of K4 kissing-loop reporter value.
Test system: K4 kissing-loop RNA reporter
Test Protocol: apparent KD of K4 kissing-loop reporter; higher = weaker reporter binding
Experimental Context: Eterna round: R107; input ligand: arginine 13.2 mM
// note: answer is a bare numeric in nM

Ask | Fill in: apparent KD of K4 kissing-loop reporter of AGGGCGGAGUGAUGUUCCGGCUCCCGAUUUAAGGAUAUUGCGUAAACAAGAAGGUAAAGGCGCAGCAAUAUUAUUUCGUAAGGCG [theeternabot_exclusion_KL_FMN_A_23] is ___
Reply | 103

Ask | Fill in: apparent KD of K4 kissing-loop reporter of CGCGAGUCCUUUCAGUGAGUGAUGUUUACGCGAGGACCGGUACGGCCGCCACUCGAUGGUAUACCAAGACAUCAGCAGAUUGUCU [theeternabot_exclusion_KL_Trp_A_18] is ___
Reply | 304

Ask | Fill in: apparent KD of K4 kissing-loop reporter of CAUGUGUCUAUUACGAUGGAUACAUAUACUGAGGAUAUCACAUUUAUGAGAAGGCAGUAAACUGCGAGUGAUGUUCGCAGUACGU [FMN A SS t8] is ___
Reply | 204

Ask | Fill in: apparent KD of K4 kissing-loop reporter of AAACUUGCAGUGAUGUUGCAAGUAGGUGAUACCAGCAUCGAAAGAUGCCCUUGGCAGCACCAUCACUGUAAGUAGGUGCUGUCAA [(H1)-(H2)-(T1)-(T2)-(H)'-(T)'_Design5] is ___
Reply | 88.5

Ask | Fill in: apparent KD of K4 kissing-loop reporter of UGAUAGGACAGAAGGAGCGGUAGUGAUGUUACCAAAAGUAUAAGGUGUCAAAAGACACCCUGCCAGGUAGGUCGCUGUCCUAUCU is ___
Reply | 210

Ask | Fill in: apparent KD of K4 kissing-loop reporter of GGCAUGGUGGCAGGAUAUCCUAAUAGAGUGAUGUUCUAGCCCUCGUAGGCGAAAGCCUACGAGGGCGGAGAAGGGCCACCAUGCC is ___
Reply | 384

Ask | Fill in: apparent KD of K4 kissing-loop reporter of GCGGGCCAGACGGCCGCCACUCCGGGCAGUGAUGUUGCGAAUCUUCUACUAGAGUGAUGUUCUACGAGGACCGGGUCGGAACGCG [Exclusion Tryptophan B Gf 14] is ___
Reply | 384

Ask | Fill in: apparent KD of K4 kissing-loop reporter of AGAUGGAAUAGAAGGAGCGGCGCCAGUGAUGUUGGAUGCCGCGGGUGAAUCAUGUCAUAGUGCCAGGUAGGUCGCUAUUUCAGCU [Beinveve] is ___
Reply | 98.1

###

System: MS2 coat protein
Test Protocol: apparent KD of MS2 coat protein; higher = weaker reporter binding
Experimental Context: Eterna round: R107; input ligand: arginine 13.2 mM
For each entry below, report its apparent KD of MS2 coat protein value.
// note: answer is a bare numeric in µM

Ask | Fill in the recorded apparent KD of MS2 coat protein for this sequence, with MS2 coat protein as test system: ACGGACAUGAGGAUCACCCAUGUGGCCGAAGGAGCGGGAAUUAACCCAGGUAGGUCGCGGAAAUUUUUUAAAUUAUUUUAAUUUU [Same State - Arginine A]
Reply | 0.0144

Ask | Fill in the recorded apparent KD of MS2 coat protein for this sequence, with MS2 coat protein as test system: ACGCUGAUUGAUUACAAUCAGCGAAAAGAUACCAGUGGGUAAUCCCACCCUUGGCAGCUUAAAUCUGAGGAUCACCCAGGUGGUA [TheoAS 19 #MS2Right #BothOrNeither #AlternativeMS2]
Reply | 0.153

Ask | Fill in the recorded apparent KD of MS2 coat protein for this sequence, with MS2 coat protein as test system: UAAUAGGUCCAGAACGUACCAGGUGAUCAACGAGGACCGGUACGGCCGCCACUCGAAACAUGAGGAUCACCCAUGUAACUGGACC [|T'-M'-Trp-Ms2|_Design 2_ML]
Reply | 0.173

Ask | Fill in the recorded apparent KD of MS2 coat protein for this sequence, with MS2 coat protein as test system: GAGUCCACGGCGGCCGCCACUCGCGGCGCCACAUGGCGCCGGGACAUGAGGAUCACCCAUGUCCCGAGGACCGGGCCGAUCCUUA [Same State Typrtophan B GF3]
Reply | 0.0112

Ask | Fill in the recorded apparent KD of MS2 coat protein for this sequence, with MS2 coat protein as test system: GAUCCUCGUACGGAUACCAGCGACUAACAUGAGGAUCACCCAUGUGAUAAAGAAAAUAUUUGCCCUUGGCAGCCGAAUAGAUAGU [#21 Same State - Theophylline B]
Reply | 0.0365

Ask | Fill in the recorded apparent KD of MS2 coat protein for this sequence, with MS2 coat protein as test system: UCAUAAGUACCGGUCCUCAGAUCCUCAUGACGAGGACCGGUACGGCCGCCACUCGAAACAUGAGGAUCACCCAUGUAAUAACAUU [Brourdmod23]
Reply | 0.0195

###

System: K4 kissing-loop RNA reporter;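 note: bound reporter read as fluorescence of individual clusters on recovered sequencing chips by microscopy, with normalized cluster intensities fitted with a binding model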
Test Protocol: apparent KD of K4 kissing-loop reporter; higher = weaker reporter binding
Experimental Context: Eterna round: R107; input ligand: arginine 13.2 mM
Property: apparent KD of K4 kissing-loop reporter
State the value, then name its unit.

Ask | Fill in the recorded apparent KD of K4 kissing-loop reporter for this sequence, with K4 kissing-loop RNA reporter as test system: UUAUAUACGAGUGAUGUUCGUUAUUUAUCAGAGGAUAUGCUUAAAUGCAGAAGGCUGUAUUUCUAUUUGAUAUUAAAUUUUAUAA [JR_Nu3_ExcFMNA_Sub026]
Reply | 89.8 nM

Ask | Fill in the recorded apparent KD of K4 kissing-loop reporter for this sequence, with K4 kissing-loop RNA reporter as test system: AUCAGUUCAGCUGAUACCAGUCAGGAGUGAUGUUCCUGCUCGCGUCAGCCGCGUCGACAAGACCCUUGGCAGCAGCUCUAAGUGU [theeternabot_exclusion_KL_Theo_B_40]
Reply | 98.1 nM

Ask | Fill in the recorded apparent KD of K4 kissing-loop reporter for this sequence, with K4 kissing-loop RNA reporter as test system: AGUACAAUGGCGGCCGCCACUCAAUGGGCGACCGAAAGGUCGCAUCACUCAGUGAUGUUGAGUGAGAGGACCGGGCCUUUGUACA [Omei KL Tryp B SS B v8]
Reply | 497 nM

Ask | Fill in the recorded apparent KD of K4 kissing-loop reporter for this sequence, with K4 kissing-loop RNA reporter as test system: UAUCGAGUGAUGUUCGAUGUAGUGCAUUCAGAGGAUAUAGGAUGGGCUAGAAGGCUGAAAAGUGCUUCGAGUGAUGUUCGAAGAU [Exclusion FMN A GF 5]
Reply | 49.2 nM

Ask | Fill in the recorded apparent KD of K4 kissing-loop reporter for this sequence, with K4 kissing-loop RNA reporter as test system: CGAGCGCGUGCGGCCGCCACUACUAUAAGUCGUCCAAGUUAGUGAUGUUGACUGAACGUCGGAAAUAGGACCGGGCAUAGUUUUA [theeternabot_sameState_KL_Trp_B_40]
Reply | 410 nM
